Biological target: Lysine-specific demethylase 5D [1-760] (Homo sapiens, UniProt Q9BY66)
Construct: 1-760
Sequence (Q9BY66 1-760): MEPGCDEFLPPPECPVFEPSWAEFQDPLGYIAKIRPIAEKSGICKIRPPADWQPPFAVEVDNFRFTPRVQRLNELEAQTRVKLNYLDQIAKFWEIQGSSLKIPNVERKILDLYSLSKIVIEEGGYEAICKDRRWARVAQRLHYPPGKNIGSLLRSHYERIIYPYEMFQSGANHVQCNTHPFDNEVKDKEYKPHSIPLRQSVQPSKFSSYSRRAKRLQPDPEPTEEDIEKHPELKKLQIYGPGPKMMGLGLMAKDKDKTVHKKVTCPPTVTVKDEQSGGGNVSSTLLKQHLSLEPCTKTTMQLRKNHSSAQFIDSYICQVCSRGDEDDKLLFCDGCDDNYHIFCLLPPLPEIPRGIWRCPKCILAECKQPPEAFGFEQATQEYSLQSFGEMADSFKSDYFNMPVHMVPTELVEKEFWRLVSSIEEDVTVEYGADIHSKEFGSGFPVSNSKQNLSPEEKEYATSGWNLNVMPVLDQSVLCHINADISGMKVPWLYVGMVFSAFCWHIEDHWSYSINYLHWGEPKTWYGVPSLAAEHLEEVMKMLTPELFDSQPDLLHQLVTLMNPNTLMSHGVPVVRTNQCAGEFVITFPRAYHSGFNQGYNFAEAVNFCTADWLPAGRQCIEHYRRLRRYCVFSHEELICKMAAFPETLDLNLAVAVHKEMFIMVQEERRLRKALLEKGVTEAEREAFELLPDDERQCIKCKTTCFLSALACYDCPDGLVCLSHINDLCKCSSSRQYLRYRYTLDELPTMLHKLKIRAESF
Experiment: Formaldehyde Dehydrogenase-Coupled Demethylase (FDH) Assay
Conditions: 25 °C
Recorded measurements of pIC50, one per entry
// pIC50 here means minus log10 of the molar concentration (mol/L)

* Cc1cc(Cl)ccc1COc1ccnn1-c1cc(C(=O)O)ccn1 | 4.96
* Cn1cc(Nc2cnccc2C(=O)O)c2cccnc21 | 4.66

Given item O=C(O)c1ccnc(-c2cc(C(=O)NCCc3ccccc3)ccn2)c1 , the value recorded as its pIC50 is 4.28

The compound identified as CCN(CCN(C)C)C(=O)CNCc1cc(C(=O)O)ccn1 registered its pIC50 at 4.85

Entry O=C(Cc1ccc(Cl)cc1)Nc1cnccc1C(=O)O , pIC50 reported as 4.74
